Overview of recorded chromatographic logD for various molecules
assay: Lipophilicity, logD of compound at pH 2 to 10.5 by reversed-phase HPLC; format: physicochemical
experimental.endpoint: chromatographic logD

molecule	meas.value
O=C(O)c1cnn(-c2cccc(-c3cccc(C(=O)N4CCCC5(CCCC5)C4)c3F)c2)c1C1CC1	3.7
CCCC1CCCCN1C(=O)c1cccc(-c2cccc(-n3ncc(C(=O)O)c3C3CC3c3cn(C)nn3)c2)c1 (mixture of isomers)	2.9
CCCC1CCCCN1C(=O)c1cccc(-c2cccc(-n3ncc(C(=O)O)c3C3CC3c3cccnn3)c2)c1 (mixture of isomers)	2.9
CN(C)C(=O)c1cccc(-c2cccc(-n3ncc(C(=O)O)c3C3CC3)c2)c1	1.4
CCCC1CCCCN1C(=O)c1cccc(-c2cccc(-n3ncc(C(=O)O)c3C3CC3c3ccccn3)c2)c1 (mixture of isomers)	3.1
